Tgt: GST-PLK3 (Homo sapiens)
Construct: purchased CarnaBio
Sequence (Q9H4B4 whole entry): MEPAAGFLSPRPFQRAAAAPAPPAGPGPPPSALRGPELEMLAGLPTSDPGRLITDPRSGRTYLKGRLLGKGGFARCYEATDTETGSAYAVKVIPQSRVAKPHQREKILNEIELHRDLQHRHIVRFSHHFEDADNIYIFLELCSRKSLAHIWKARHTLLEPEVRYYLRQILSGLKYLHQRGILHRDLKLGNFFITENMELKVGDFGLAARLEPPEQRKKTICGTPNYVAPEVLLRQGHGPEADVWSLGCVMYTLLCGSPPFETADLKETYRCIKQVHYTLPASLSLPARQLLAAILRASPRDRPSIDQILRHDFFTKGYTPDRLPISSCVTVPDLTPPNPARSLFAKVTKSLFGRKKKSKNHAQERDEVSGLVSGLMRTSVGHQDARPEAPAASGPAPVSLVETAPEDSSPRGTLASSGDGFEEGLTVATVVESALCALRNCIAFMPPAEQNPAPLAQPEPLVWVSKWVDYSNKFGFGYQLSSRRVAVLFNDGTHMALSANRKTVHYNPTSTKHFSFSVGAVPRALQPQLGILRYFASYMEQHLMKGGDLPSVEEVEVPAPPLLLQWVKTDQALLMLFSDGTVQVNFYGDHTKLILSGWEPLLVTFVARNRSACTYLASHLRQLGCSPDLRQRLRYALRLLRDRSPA
Assay Notes: PLK TR-FRET peptide assay, PLK3
Format: biochemical
Assay Setup: PLK TR-FRET peptide assay, GST-PLK3; read-out: Plk3 IC50
pIC50: −log10 of the molar value.
Property Label: pIC50

compound="CN1C(=O)C23CCC(CC2)N3c2nc(-n3ccnc3-c3ccccc3)ncc21 [Example 308]" tgt="GST-PLK3 (Homo sapiens)" test_result="< 4.30"
compound="CC[C@@H]1C(=O)N(C)c2cnc(-n3ccnc3-c3ccncc3)nc2N1C1CCOCC1 [Example 100]" tgt="GST-PLK3 (Homo sapiens)" test_result="5.00 to 6.00"
compound="CCC12CN(C)CCN1c1nc(-n3ccnc3-c3ccccc3)ncc1N(C)C2=O (racemic) [Example 371]" tgt="GST-PLK3 (Homo sapiens)" test_result="< 4.30"
compound="CC[C@@]12COCCN1c1nc(-n3ccnc3-c3nccs3)ncc1N(C)C2=O [Example 387]" tgt="GST-PLK3 (Homo sapiens)" test_result="< 4.30"
